Give measured CF (coronary flow) change for each item. Keep answers brief.
# System: dogs
# ASSAY DETAILS: Intravenous cardiovascular evaluation in dogs
# CONDITION SET: i.v. dogs, estimated at HBD

Query :: Fill in reported CF (coronary flow) change for this entry: CCCn1c(=O)c2c(ncn2CCCO)n(CCC)c1=O [IV]
Result :: +4 %Δ

Query :: Answer with reported CF (coronary flow) change of CCCn1c(=O)c2c(ncn2CC(C)O)n(CCC)c1=O (stereo not shown) [III]
Result :: +8 %Δ

Query :: Answer with the recorded CF (coronary flow) change for the compound listed here: Cn1c(=O)c2c(ncn2CC(O)CO)n(C)c1=O (stereo not shown) [Compound II]
Result :: +10 %Δ

Query :: Give CF (coronary flow) change for the following compound: CCCn1c(=O)c2c(ncn2CC(O)CO)n(CCC)c1=O (stereo not shown) [Compound V]
Result :: +17 %Δ

* * *

# ASSAY DETAILS: Summary of relative molar activities (means and therapeutic efficacy)
# CONDITION SET: mean of bronchodilator lines of Table I, relative to theophylline
Give Mean bronchodilator activity (relative molar) for every item shown.
Give your answer as a number; write no unit.

Query :: Determine from records and report Mean bronchodilator activity (relative molar) for Cn1c(=O)c2c(ncn2CC(O)CO)n(C)c1=O (stereo not shown)
Result :: 0.60

Query :: Kindly indicate its recorded Mean bronchodilator activity (relative molar). Item: CCCn1c(=O)c2c(ncn2CCCO)n(CCC)c1=O
Result :: 1.87

Query :: Please list Mean bronchodilator activity (relative molar) recorded for the compound CCCn1c(=O)c2c(ncn2CC(C)O)n(CCC)c1=O (stereo not shown)
Result :: 3.46

Query :: Check the records and state Mean bronchodilator activity (relative molar) for CCCn1c(=O)c2c(ncn2CC(O)CO)n(CCC)c1=O (stereo not shown)
Result :: 1.76

* * *

# Test system: dogs
# ASSAY DETAILS: Intravenous cardiovascular evaluation in dogs
# CONDITION SET: i.v. dogs, estimated at HBD
Would you mind telling me the reported TPR (total peripheral resistance) change of each entry?
Give the quantity in %Δ, number only.

Query :: Write down TPR (total peripheral resistance) change measured for item CCCn1c(=O)c2c(ncn2CCCO)n(CCC)c1=O [IV]
Result :: -5

Query :: State its TPR (total peripheral resistance) change: CCCn1c(=O)c2c(ncn2CC(C)O)n(CCC)c1=O (stereo not shown) [III]
Result :: -15

Query :: Retrieve TPR (total peripheral resistance) change measured for CCCn1c(=O)c2c(ncn2CC(O)CO)n(CCC)c1=O (stereo not shown) [Compound V] and print it.
Result :: -9

* * *

# ASSAY DETAILS: Intravenous emetic study in dogs (ED50)
# Format: in vivo, dog
# CONDITION SET: dog, in vivo, iv; read-out: ED50 (median emetic dose), I.V. Dogs
# Description: Twelve adult mongrel dogs of either sex were employed to determine the median emetic dose (ED50) of all five experimental compounds after intravenous administration. […] Onset, frequency, and duration of emetic episodes were also recorded. The dogs were not fasted, were allowed at least 2 days rest between doses, and no animal received the same compound twice in succession. […] ED50 values were calculated according to the method of Litchfield and Wilcoxon (1949).
QUANTITY: ED50 (mg/kg)
Give the quantity in mg/kg, number only.

Query :: Name the recorded ED50 of the molecule listed here: Cn1c(=O)c2[nH]cnc2n(C)c1=O [Compound I, 1,3-dimethylxanthine]
Result :: 58

Query :: Assign ED50 to the following record: CCCn1c(=O)c2c(ncn2CC(C)O)n(CCC)c1=O (centres unmarked) [III]
Result :: 0.7

Query :: Supply recorded ED50 for CCCn1c(=O)c2c(ncn2CCCO)n(CCC)c1=O [IV] here.
Result :: 7.5

Query :: Please report the measured ED50 for CCCn1c(=O)c2c(ncn2CC(O)CO)n(CCC)c1=O (centres unmarked) [Compound V]
Result :: 53

Query :: Look up ED50 of Cn1c(=O)c2c(ncn2CC(O)CO)n(C)c1=O (centres unmarked) [Compound II] and report it.
Result :: 900

* * *

# Test system: dogs
# ASSAY DETAILS: Intravenous cardiovascular evaluation in dogs
# CONDITION SET: i.v. dogs, estimated at HBD
QUANTITY: CO (cardiac output) change

Query :: Fill in CO (cardiac output) change for record CCCn1c(=O)c2c(ncn2CC(O)CO)n(CCC)c1=O (stereo not shown)
Result :: +6 %Δ

Query :: Output measured CO (cardiac output) change for this item: CCCn1c(=O)c2c(ncn2CCCO)n(CCC)c1=O
Result :: +2 %Δ

Query :: Given Cn1c(=O)c2c(ncn2CC(O)CO)n(C)c1=O (stereo not shown) , respond with its CO (cardiac output) change.
Result :: -15 %Δ

Query :: For the molecule CCCn1c(=O)c2c(ncn2CC(C)O)n(CCC)c1=O (stereo not shown) , report CO (cardiac output) change.
Result :: +10 %Δ

* * *

Kindly supply the reported I.V. Cardiovascular (Dogs), mean relative molar activity values for the records listed here.
# Tested on: dogs
# ASSAY DETAILS: Intravenous cardiovascular evaluation in dogs
# CONDITION SET: mean for arterial pressure, heart rate, contractile force, cardiac output, stroke volume, cardiac work, TPR, coronary flow and resistance; relative to theophylline

Query :: Give reported I.V. Cardiovascular (Dogs), mean relative molar activity value for CCCn1c(=O)c2c(ncn2CC(O)CO)n(CCC)c1=O (stereo not shown) [Compound V]
Result :: 0.91

Query :: Consider the compound Cn1c(=O)c2c(ncn2CC(O)CO)n(C)c1=O (stereo not shown) [Compound II] and give its recorded I.V. Cardiovascular (Dogs), mean relative molar activity.
Result :: 0.36

Query :: Supply recorded I.V. Cardiovascular (Dogs), mean relative molar activity for CCCn1c(=O)c2c(ncn2CCCO)n(CCC)c1=O [IV] here.
Result :: 2.02

Query :: Give reported I.V. Cardiovascular (Dogs), mean relative molar activity value for CCCn1c(=O)c2c(ncn2CC(C)O)n(CCC)c1=O (stereo not shown) [III]
Result :: 1.16

* * *

Task for the reader: assign each of the following compounds its reported I.P. CNS Stimulation (Mice), relative molar activity.
# Tested on: mice
# ASSAY DETAILS: Voluntary motor activity in mice (CNS stimulation)
# Type: in vivo, male albino Swiss mice
# CONDITION SET: relative to theophylline, molar basis
I'd appreciate a reply containing only the number, no unit.

Query :: Give a short answer stating reported I.P. CNS Stimulation (Mice), relative molar activity for Cn1c(=O)c2c(ncn2CC(O)CO)n(C)c1=O (stereo not shown) .
Result :: 0.18

Query :: Annotate the compound CCCn1c(=O)c2c(ncn2CC(C)O)n(CCC)c1=O (stereo not shown) with its measured I.P. CNS Stimulation (Mice), relative molar activity.
Result :: 1.73

Query :: Indicate its recorded I.P. CNS Stimulation (Mice), relative molar activity; the compound in question is CCCn1c(=O)c2c(ncn2CCCO)n(CCC)c1=O
Result :: 0.48

Query :: Name the recorded I.P. CNS Stimulation (Mice), relative molar activity of the compound listed here: CCCn1c(=O)c2c(ncn2CC(O)CO)n(CCC)c1=O (stereo not shown)
Result :: 0.30

* * *

# ASSAY DETAILS: Solubility
# CONDITION SET: water solubility, qualitative
QUANTITY: Solubility in words

{"COMPOUND": "CCCn1c(=O)c2c(ncn2CC(C)O)n(CCC)c1=O (stereo not shown)", "RECORDED VALUE": "low solubilities"}
{"COMPOUND": "CCCn1c(=O)c2c(ncn2CCCO)n(CCC)c1=O", "RECORDED VALUE": "low solubilities"}

* * *

Give measured log10(solubility) for each item. Keep answers brief.
# ASSAY DETAILS: Solubility
# CONDITION SET: water
Hey, these are logged values: log10 of solubility, mg/mL being the unit before logging.

Query :: Fill in reported log10(solubility) for this entry: Cn1c(=O)c2c(ncn2CC(O)CO)n(C)c1=O (centres unmarked)
Result :: 2.52

Query :: Provide log10(solubility) value for the following compound: CCCn1c(=O)c2c(ncn2CC(C)O)n(CCC)c1=O (centres unmarked)
Result :: 1.00

Query :: Tell me log10(solubility) reported for Cn1c(=O)c2[nH]cnc2n(C)c1=O
Result :: 0.90

Query :: Please list log10(solubility) recorded for the compound CCCn1c(=O)c2c(ncn2CC(O)CO)n(CCC)c1=O (centres unmarked)
Result :: 2.00

Query :: State its log10(solubility): CCCn1c(=O)c2c(ncn2CCCO)n(CCC)c1=O
Result :: 1.48

* * *

Task for the reader: assign each of the following compounds its reported Estimated Human Bronchodilator Dose (HBD), per kg.
# Tested on: human bronchodilator
# ASSAY DETAILS: Estimated human bronchodilator dose equivalent to recommended theophylline dose
# CONDITION SET: based on recommended theophylline dose and relative bronchodilator activities
Provide the reading as a plain figure in mg/kg.

Query :: Supply measured Estimated Human Bronchodilator Dose (HBD), per kg of CCCn1c(=O)c2c(ncn2CC(C)O)n(CCC)c1=O (centres unmarked) in your reply.
Result :: 1.4

Query :: Respond only with Estimated Human Bronchodilator Dose (HBD), per kg recorded for Cn1c(=O)c2[nH]cnc2n(C)c1=O
Result :: 2.9

Query :: Tell me its Estimated Human Bronchodilator Dose (HBD), per kg given Cn1c(=O)c2c(ncn2CC(O)CO)n(C)c1=O (centres unmarked) as the entry.
Result :: 33.6

Query :: # return recorded Estimated Human Bronchodilator Dose (HBD), per kg for input CCCn1c(=O)c2c(ncn2CCCO)n(CCC)c1=O
Result :: 5.0

Query :: State, in one line, measured Estimated Human Bronchodilator Dose (HBD), per kg of CCCn1c(=O)c2c(ncn2CC(O)CO)n(CCC)c1=O (centres unmarked)
Result :: 4.3
